- PROTOCOL: Urinary excretion of flavanol metabolites (0-24 h) after a single serving of soluble cocoa product (HPLC-ESI-QToF-MS)
- Type: in vivo, human
- CONDITION INFO: after CC-PP (68.25 mg flavanols), 24 h urine, mean ± SD, n = 13

{"COMPOUND": "COc1cc(CCC(=O)O)ccc1O [3-Methoxy-4-hydroxyphenylpropionic acid]", "Excreted in urine, Total": "0.461 ± 0.138 µmol"}
{"COMPOUND": "COc1ccc(/C=C/C(=O)O)cc1O", "Excreted in urine, Total": "0.686 ± 0.356 µmol"}
{"COMPOUND": "O=C1CCC(Cc2ccc(O[C@@H]3O[C@H](C(=O)O)[C@@H](O)[C@H](O)[C@H]3O)c(O)c2)O1 (stereo partly shown) [HPVL-4′-glucuronide]", "Excreted in urine, Total": "0.961 ± 0.151 µmol"}
{"COMPOUND": "O=C(O)CCc1ccc(O)c(O)c1 [3,4-Dihydroxyphenylpropionic acid]", "Excreted in urine, Total": "1.117 ± 0.131 µmol"}

* * *

Recorded Excreted in urine, 12–24 h for the following compounds
- PROTOCOL: Urinary excretion of flavanol metabolites (0-24 h) after a single serving of soluble cocoa product (HPLC-ESI-QToF-MS)
- Type: in vivo, human
- CONDITION INFO: after CC-PP (68.25 mg flavanols), mean ± SD, n = 13

{"COMPOUND": "O=C(O)Cc1ccc(O)c(O)c1 [3,4-Dihydroxyphenylacetic acid]", "Excreted in urine, 12–24 h, µmol": 0.539}
{"COMPOUND": "O=C(O)Cc1cccc(O)c1 [Hydroxyphenylacetic acid, 3-Hydroxyphenylacetic acid]", "Excreted in urine, 12–24 h, µmol": 0.534}
{"COMPOUND": "COc1cc([C@H]2Oc3cc(O)cc(OS(=O)(=O)O)c3C[C@H]2O)ccc1O (single isomer, unassigned) [Epicatechin-methoxy-sulfate (isomer 1), Epicatechin-methoxy-sulfate]", "Excreted in urine, 12–24 h, µmol": 0.232}

* * *

- PROTOCOL: Urinary excretion of flavanol metabolites (0-24 h) after a single serving of soluble cocoa product (HPLC-ESI-QToF-MS)
- Type: in vivo, human
- CONDITION INFO: after CC-PP (68.25 mg flavanols), mean ± SD, n = 13
- Source text: They were non-smoker, non-vegetarian, non-pregnant women, who were not taking any medication or nutritional supplements, and were not suffering from any chronic pathology or gastrointestinal disorder. The sample size was estimated attending to similar previous bioavailability studies. […] Due to the lack of standards for certain phase II metabolites, they were tentatively quantified using the calibration curves of their corresponding phenolic precursors. […]
Would you mind labelling by Excreted in urine, 0–4 h? At or over 0.6 µmol is T, under is F.

{"COMPOUND": "COc1cc([C@H]2Oc3cc(OS(=O)(=O)O)cc(O)c3C[C@H]2O)ccc1O (single isomer, unassigned) [Epicatechin-methoxy-sulfate (isomer 2), Epicatechin-methoxy-sulfate]", "ANSWER LABEL": "F"}
{"COMPOUND": "COc1cc([C@H]2Oc3cc(O)cc(OS(=O)(=O)O)c3C[C@H]2O)ccc1O (single isomer, unassigned) [Epicatechin-methoxy-sulfate (isomer 1), Epicatechin-methoxy-sulfate]", "ANSWER LABEL": "T"}
{"COMPOUND": "COc1ccc(/C=C/C(=O)O)cc1O", "ANSWER LABEL": "F"}
{"COMPOUND": "COc1cc(CCC(=O)O)ccc1O [3-Methoxy-4-hydroxyphenylpropionic acid]", "ANSWER LABEL": "F"}
{"COMPOUND": "O=C(O)Cc1cccc(O)c1 [Hydroxyphenylacetic acid, 3-Hydroxyphenylacetic acid]", "ANSWER LABEL": "T"}
{"COMPOUND": "O=S(=O)(O)Oc1cc([C@H]2Oc3cc(O)cc(O)c3C[C@H]2O)ccc1O [Epicatechin-3′-sulfate]", "ANSWER LABEL": "T"}
{"COMPOUND": "O=C(O)CCc1ccc(O)cc1 [Hydroxyphenylpropionic acid]", "ANSWER LABEL": "F"}
{"COMPOUND": "COc1cc(CC(=O)O)ccc1O [3-Methoxy-4-hydroxyphenylacetic acid]", "ANSWER LABEL": "F"}
{"COMPOUND": "O=C(O)Cc1ccc(O)c(O)c1 [3,4-Dihydroxyphenylacetic acid]", "ANSWER LABEL": "T"}
{"COMPOUND": "O=C(O)CCc1ccc(O)c(O)c1 [3,4-Dihydroxyphenylpropionic acid]", "ANSWER LABEL": "F"}
{"COMPOUND": "O=C1CCC(Cc2cccc(OS(=O)(=O)O)c2)O1 (centres unmarked) [PVL-3′-sulfate, 5-Phenyl-γ-valerolactone-3′-sulfate]", "ANSWER LABEL": "T"}
{"COMPOUND": "O=C1CCC(Cc2cccc(OC3OC(C(=O)O)C(O)C(O)C3O)c2)O1 (centres unmarked) [PVL-3′glucuronide, 5-Phenyl-γ-valerolactone-3′-glucuronide]", "ANSWER LABEL": "F"}
{"COMPOUND": "COc1ccc([C@H]2Oc3cc(O)cc(OS(=O)(=O)O)c3C[C@H]2O)cc1O (single isomer, unassigned) [Epicatechin-methoxy-sulfate (isomer 3), Epicatechin-methoxy-sulfate]", "ANSWER LABEL": "T"}
{"COMPOUND": "O=C(O)C1OC(Oc2cc(C3Oc4cc(O)cc(O)c4CC3O)ccc2O)C(O)C(O)C1O (centres unmarked) [Epicatechin-3′-glucuronide]", "ANSWER LABEL": "T"}
{"COMPOUND": "O=C(O)c1ccc(O)c(O)c1 [Protocatechuic acid, 3,4-Dihydroxybenzoic acid]", "ANSWER LABEL": "F"}

Just for reference, paper PMC6683251 is where these values come from.
